System: Staphylococcus aureus 447
Assay: MIC, standard broth micro-dilution assay, SA 447
Assay type: cell-based
Protocol: The antibacterial efficacy of the present compounds is illustrated by Table III. The minimal inhibitory concentrations (MICs) were determined using a standard broth micro-dilution assay.
Reported minimal inhibitory concentration (MIC), SA 447 values follow for various molecules
Property: minimal inhibitory concentration (MIC), SA 447

1) CC(C)C[C@@H](N)C(=O)N[C@H]1C(=O)N[C@@H](CC(N)=O)C(=O)N[C@H]2C(=O)N[C@H]3C(=O)NC(C(=O)N[C@H](C(=O)O)c4cc(O)cc(O)c4-c4cc3ccc4O)[C@H](OC3CC(C)(N)C(O)C(C)O3)c3ccc(c(Cl)c3)Oc3cc2cc(c3OC2OC(CO)C(O)C(O)C2OC2CC(C)(N)C(O)C(C)O2)Oc2ccc(cc2Cl)[C@H]1O (stereo partly drawn) [Example 17] :: 0.5
2) CC1OC(OC2c3ccc(c(Cl)c3)Oc3cc4cc(c3OC3OC(CO)C(O)C(O)C3OC3CC(C)(NCc5ccc(-c6ccc(Cl)cc6)cc5)C(O)C(C)O3)Oc3ccc(cc3Cl)C(O)C(NC(=O)CCCCCCCc3ccccc3)C(=O)NC(CC(N)=O)C(=O)NC4C(=O)NC3C(=O)NC2C(=O)NC(C(=O)O)c2cc(O)cc(O)c2-c2cc3ccc2O)CC(C)(N)C1O (stereo not drawn) [Example 8] :: 8
3) CC(C)CCC(=O)NC1C(=O)NC(CC(N)=O)C(=O)NC2C(=O)NC3C(=O)NC(C(=O)NC(C(=O)O)c4cc(O)cc(O)c4-c4cc3ccc4O)C(OC3CC(C)(N)C(O)C(C)O3)c3ccc(c(Cl)c3)Oc3cc2cc(c3OC2OC(CO)C(O)C(O)C2OC2CC(C)(NCc3ccc(-c4ccc(Cl)cc4)cc3)C(O)C(C)O2)Oc2ccc(cc2Cl)C1O (stereo not drawn) [Example 7] :: 0.5
4) CC1OC(OC2c3ccc(c(Cl)c3)Oc3cc4cc(c3OC3OC(CO)C(O)C(O)C3OC3CC(C)(NCc5ccc(-c6ccccc6)cc5)C(O)C(C)O3)Oc3ccc(cc3Cl)C(O)C(NC(=O)C(Cc3ccc(Cl)cc3)NC(=O)OC(C)(C)C)C(=O)NC(CC(N)=O)C(=O)NC4C(=O)NC3C(=O)NC2C(=O)NC(C(=O)O)c2cc(O)cc(O)c2-c2cc3ccc2O)CC(C)(N)C1O (stereo not drawn) [Example 28] :: 2
5) CC1OC(OC2c3ccc(c(Cl)c3)Oc3cc4cc(c3OC3OC(CO)C(O)C(O)C3OC3CC(C)(N)C(O)C(C)O3)Oc3ccc(cc3Cl)C(O)C(NC(=O)C(Cc3ccccc3)N(C)C(=O)OC(C)(C)C)C(=O)NC(CC(N)=O)C(=O)NC4C(=O)NC3C(=O)NC2C(=O)NC(C(=O)O)c2cc(O)cc(O)c2-c2cc3ccc2O)CC(C)(N)C1O (stereo not drawn) [Example 40] :: 8
6) CC(C)CC(NCc1ccc(-c2ccccc2)cc1)C(=O)NC1C(=O)NC(CC(N)=O)C(=O)NC2C(=O)NC3C(=O)NC(C(=O)NC(C(=O)O)c4cc(O)cc(O)c4-c4cc3ccc4O)C(OC3CC(C)(N)C(O)C(C)O3)c3ccc(c(Cl)c3)Oc3cc2cc(c3OC2OC(CO)C(O)C(O)C2OC2CC(C)(N)C(O)C(C)O2)Oc2ccc(cc2Cl)C1O (stereo not drawn) [Example 34] :: 0.125
